The measurements presented in this section are drawn from PubChem BioAssay.

- test.method.notes: basal CRE-LacZ reporter activity in PC12 – cell-based, unstimulated, primary screen (AID 1145)
- condition.description: no forskolin, luminescence, 4.5 h, higher = more signal, called active from +8 up or from −8 down
Condition met means recorded z-score is 0.5 or above; Condition not met means it is below 0.5.

{"smiles": "COc1cc(CO)cc(I)c1O[C@H]1C=C(C(=O)NCCO)C[C@@H](N(C(=O)c2cc3ccccc3oc2=O)C2CCCCCC2)[C@@H]1O", "qualitative.label": "Condition not met"}
{"smiles": "NCCCCCNC(=O)[C@H]1C[C@H]2C(=O)N[C@@H](Cc3ccccc3)C(=O)N2[C@H]1c1cccc(OCCO)c1", "qualitative.label": "Condition met"}

Determine whether measured z-score meets or exceeds 0.5 for O=C1O[C@H](c2ccccc2)[C@H](c2ccccc2)N2[C@H]1[C@@H](C(=O)NC[C@H](O)c1ccccc1)[C@]1(C(=O)Nc3ccc(C#CC4=CCCCC4)cc31)[C@H]2c1ccccc1OCCO
Condition not met

Determine whether measured z-score meets or exceeds 0.5 for Cc1ccc(S(=O)(=O)N2C[C@@H](C(=O)O)[C@H](Sc3ccccc3)C[C@H]2c2ccccc2)cc1
Condition not met

Determine whether measured z-score meets or exceeds 0.5 for C=CC[C@]1(C(=O)NCc2ccccc2)N=C(c2ccc(OCCCO)cc2)O[C@H]1c1ccccc1CN=[N+]=[N-]
Condition met

Determine whether measured z-score meets or exceeds 0.5 for Cc1ccc(S[C@]2(C(=O)O)CC(=O)N(C(C)C)[C@@H]2c2ccc(CO)cc2)cc1
Condition not met

---

- test.method.notes: probe aDKK1 binding to arrayed compounds – biochemical, biotinylated probe, 635/667 nm fluorescence, primary screen (AID 1099);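 note: score merges 667nm spot fluorescence with signal to noise across triplicate slides; reference of the scale not given here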
- condition.description: small-molecule microarray, higher = more signal
Overview of reported composite z-score across a group of molecules:

Worked set:
{"molecule": "COC(=O)c1c(CC[C@@H](CO)NC(=O)NCCc2c[nH]c3ccccc23)oc(C(=O)Cc2ccccc2)c1C(=O)OC", "observed.value": -0.281}
{"molecule": "COC(=O)C(CC#Cc1ccc2c(c1)[C@]1(C(=O)N2)[C@H](c2ccccc2OCCO)N2[C@H](c3ccccc3)[C@H](c3ccccc3)OC(=O)[C@H]2[C@@H]1C(=O)O)C(=O)OC", "observed.value": 0.666}

Give composite z-score for the following molecule: COc1ccc(NN2C(C(O)c3ccc(N(C)C)cc3)C=CC3C(=O)N(C4CCCCC4)C(=O)C32)cc1 (stereo not drawn)
1.15

Give composite z-score for the following molecule: C#CCN(C/C=C/c1ccccc1)[C@H](CO)c1ccccc1
-0.583

Give composite z-score for the following molecule: CN(C)CCCCNC(=O)[C@@H]1C[C@@H]2C(=O)N[C@@H](CCCCN)C(=O)N2[C@@H]1c1ccc(O)cc1
-0.0238

Give composite z-score for the following molecule: O=C1[C@H]2C=C(I)[C@H](C[C@@H]2OCCCCO)[C@@]12CO2
-0.0509

Give composite z-score for the following molecule: COC(=O)c1c2oc(c1C(=O)OC)C(=O)NC1(CCCCC1)c1cn(nn1)C[C@H](Cc1ccccc1)NC(=O)N[C@H](CO)CC2
0.0173

Give composite z-score for the following molecule: CCCC=C(CCC)[C@@H](NC(=O)OCC(C)C)c1ccccc1
0.907

---

- target.under.test: Homeobox protein Hox-A13 (Mus musculus) (UniProt Q62424)
- Sequence (Q62424 whole entry, looked up): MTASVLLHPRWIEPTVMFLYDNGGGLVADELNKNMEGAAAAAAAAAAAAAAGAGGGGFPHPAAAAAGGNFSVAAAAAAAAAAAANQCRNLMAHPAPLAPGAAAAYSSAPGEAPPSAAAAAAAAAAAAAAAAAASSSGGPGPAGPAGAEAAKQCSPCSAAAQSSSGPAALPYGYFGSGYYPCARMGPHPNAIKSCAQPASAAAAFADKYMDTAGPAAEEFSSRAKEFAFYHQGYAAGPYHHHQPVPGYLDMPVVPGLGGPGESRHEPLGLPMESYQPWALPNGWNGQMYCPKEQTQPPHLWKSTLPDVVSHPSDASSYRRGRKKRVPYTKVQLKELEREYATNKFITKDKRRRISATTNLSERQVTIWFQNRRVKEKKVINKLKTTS
- test.method.notes: disruptors of Hoxa13 oligonucleotide interaction – biochemical, fluorescence polarization, labeled oligonucleotide, primary screen (AID 1185)
- condition.description: Hoxa13:DNA binding, 15 min, higher = more signal, called active from +8 up or from −8 down
Active and inactive are the calls of the source.
Overview of reported z-score across a group of molecules:

Worked set:
{"molecule": "O=C(NCc1ccccc1)[C@@H]1c2ccccc2C(=O)N(C2Cc3ccccc3C2)[C@H]1c1ccc(CO)cc1", "target.under.test": "Homeobox protein Hox-A13 (Mus musculus) (UniProt Q62424)", "z-score": "-2.13 (inactive)"}
{"molecule": "CC(=O)n1cc(C(O)C2C=CC3C(=O)NC(=O)C3N2Nc2ccccn2)c2ccccc21 (stereo not given)", "target.under.test": "Homeobox protein Hox-A13 (Mus musculus) (UniProt Q62424)", "z-score": "-2.99 (inactive)"}
{"molecule": "COc1ccc([Si](C)(C)[C@@H]2[C@@H](CCn3cc([C@H](O)c4ccccc4)nn3)O[C@]3(C(=O)N(Cc4cccc(N5CCC5=O)c4)c4ccccc43)[C@H]2C)cc1", "target.under.test": "Homeobox protein Hox-A13 (Mus musculus) (UniProt Q62424)", "z-score": "-2.8 (inactive)"}

Give z-score for the following molecule: CO[C@H]1O[C@H](CO)[C@@H](OC(=O)Nc2ccccc2)[C@@H]2OC(=O)[C@@H](Cc3ccc4ccccc4c3)C/C=C/C[C@H](Cc3ccc4ccccc4c3)C(=O)O[C@@H]12
-3.03 (inactive)

Give z-score for the following molecule: COC(=O)[C@]1(CCC(=O)OC(C)(C)C)N=C(c2ccc(OCCCO)cc2)O[C@@H]1c1ccccc1
-4.4 (inactive)

Give z-score for the following molecule: COc1ccc([C@H]2OC[C@@H]3CCC(=O)N32)cc1
0.119 (inactive)

Give z-score for the following molecule: COC(=O)[C@@]1(CCC(=O)OC(C)(C)C)N=C(c2ccc(OCCCO)cc2)O[C@H]1c1ccccc1
-4.58 (inactive)

Give z-score for the following molecule: COc1ccc([Si](C)(C)[C@@H]2[C@@H](CC(=O)N3CCC[C@H]3CO)O[C@]3(C(=O)N(Cc4cccc(I)c4)c4ccccc43)[C@H]2C)cc1
-3.72 (inactive)

Give z-score for the following molecule: COCCOC(=O)N1C(=O)[C@@]2(c3cc(C#Cc4ccc(OC)cc4)ccc31)[C@H](c1ccc(O)cc1)N1[C@H](c3ccccc3)[C@H](c3ccccc3)OC(=O)[C@H]1[C@@H]2C(=O)Nc1nc2ccccc2s1
-0.183 (inactive)

Give z-score for the following molecule: COCCCNC(=O)[C@]1(Cc2ccccc2)N=C(c2ccc(OCCCO)cc2)O[C@@H]1c1ccccc1CN=[N+]=[N-]
-3.2 (inactive)

Give z-score for the following molecule: CN1C(=O)C2C=CC(C(O)c3c(F)cccc3Cl)N(NC(=O)OC(C)(C)C)C2C1=O (stereo not given)
-1.51 (inactive)

Give z-score for the following molecule: COCCOC(=O)N1C(=O)[C@@]2(c3ccccc31)[C@H](C(N)=O)[C@H]1C(=O)O[C@H](c3ccccc3)[C@H](c3ccccc3)N1[C@@H]2c1ccc(O)cc1
-4.73 (inactive)

Give z-score for the following molecule: NC(=O)[C@@H]1[C@H]2C(=O)O[C@H](c3ccccc3)[C@H](c3ccccc3)N2[C@H](c2ccc(OCCO)cc2)[C@@]12C(=O)Nc1ccc(C#CC3=CCCCC3)cc12
1.05 (inactive)

Give z-score for the following molecule: CN(C)CCCCNC(=O)[C@@H]1C[C@@H]2C(=O)N[C@@H](CCCCN)C(=O)N2[C@@H]1c1ccc(O)cc1
1.46 (inactive)

Give z-score for the following molecule: C=C(CCCC)/C(=C/C[C@@H](OC(C)=O)c1ccccc1OCCO)c1cc(C(=O)OC)ccc1OC
-4.39 (inactive)
